Biological target: T1, cMet-Fc fusion protein (extracellular domain of the cMet receptor expressed as an Fc-fusion protein) (human, UniProt P08581 25-932)
T1 construct: extracellular domain; also called soluble cMet-Fc-fusion protein; soluble cMet receptor; not shown: Fc part
T1 sequence (P08581 25-932): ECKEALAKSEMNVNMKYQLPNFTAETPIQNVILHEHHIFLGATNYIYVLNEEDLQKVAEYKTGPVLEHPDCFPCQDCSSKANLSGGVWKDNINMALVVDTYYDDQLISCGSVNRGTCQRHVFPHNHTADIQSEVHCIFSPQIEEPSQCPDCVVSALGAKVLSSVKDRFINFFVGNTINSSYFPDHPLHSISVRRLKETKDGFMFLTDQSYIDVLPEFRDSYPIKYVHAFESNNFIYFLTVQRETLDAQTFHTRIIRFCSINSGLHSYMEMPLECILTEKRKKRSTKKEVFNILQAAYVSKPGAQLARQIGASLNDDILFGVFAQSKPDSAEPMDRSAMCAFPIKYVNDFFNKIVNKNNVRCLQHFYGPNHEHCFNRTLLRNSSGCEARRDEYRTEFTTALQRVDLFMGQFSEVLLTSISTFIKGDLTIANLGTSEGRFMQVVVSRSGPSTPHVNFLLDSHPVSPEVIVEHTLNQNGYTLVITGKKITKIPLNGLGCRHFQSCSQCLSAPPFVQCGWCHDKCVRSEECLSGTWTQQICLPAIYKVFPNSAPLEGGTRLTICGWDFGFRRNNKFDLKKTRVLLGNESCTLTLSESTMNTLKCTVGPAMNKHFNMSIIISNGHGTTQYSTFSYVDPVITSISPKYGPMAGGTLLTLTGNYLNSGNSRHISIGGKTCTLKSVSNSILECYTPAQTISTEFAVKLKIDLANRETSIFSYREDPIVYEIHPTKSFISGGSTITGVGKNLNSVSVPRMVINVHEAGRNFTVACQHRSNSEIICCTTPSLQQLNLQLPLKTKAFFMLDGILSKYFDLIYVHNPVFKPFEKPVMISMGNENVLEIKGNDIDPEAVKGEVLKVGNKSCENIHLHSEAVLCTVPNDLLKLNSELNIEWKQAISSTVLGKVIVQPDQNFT
Assay: phage ELISA on cMet-Fc, competitor HGF 100 ng/mL
MEASURE: % of binding in the absence of HGF (%)
Could you give me the number in %? Just the number is fine.

| BINDER | NUMERIC READOUT |
| --- | --- |
| AGNLPCHWNMSVCDHQGT [465-D01 peptide-displaying phage (SEQ ID NO: 034)] | 235 |
| GSHHTCLDGFAGWRCTEVAP [546-E02 peptide-displaying phage (SEQ ID NO: 366)] | 74 |
| GSLIICWWSWCDKQAP [567-C08 peptide-displaying phage (SEQ ID NO: 009)] | 85 |
| AGWWSCQWELNVCIWQGT [484-D08 peptide-displaying phage (SEQ ID NO: 016)] | 105 |
| AGYWDCKGPPHFFCEWHGT [552-G11 peptide-displaying phage (SEQ ID NO: 080)] | 55 |

Inquiry: Using the record for AGVLQCIGFEWFCDIWGT [423-C11 peptide-displaying phage (SEQ ID NO: 022)] , report its % of binding in the absence of HGF.
Reply text: 132
